system: ANGPTL3 gene; assay: Example 7: serum triglycerides in mice; format: in vivo, C57bl/6 mice; set-up: key: ratio: (level/pre-treatment day -1 level) ÷ mean of D5W control group; conditions: Day 15, 0.5 mg/kg single SC injection on day 1, n=3
In the oligonucleotide strings, read from the 5' end, every base follows the letter of its sugar. An asterisk marks phosphorothioate; unmarked linkages are phosphodiester. Other units and linkages are bracketed, terminal groups are in braces. A string of capitals states the bases alone. {NAG37} = tridentate N-acetyl-galactosamine targeting ligand, structure (NAG37)s; [invAb] = inverted abasic unit; m = 2'-O-methyl; f = 2'-fluoro
Could you please report measured Avg TG, normalized to pre-treatment and control for the items listed next?
No unit in the answer, please; the number alone is enough.

stdin: Output measured Avg TG, normalized to pre-treatment and control for this item: AD05775: RNAi agent duplex: antisense AM07235-AS, sense AM07608-SS (antisense UACUGAUCAAAUAUGUUGAGC; sense GCUCAACAUNUUUGAUCAGUA; (NAG37)s GalNAc ligand; RNAi agent antisense strand modified sequence; RNAi agent sense strand modified sequence; modified_base 10 n = 2′-O-methyl-2-aminoadenosine-3′-phosphate)
stdout: 0.610

stdin: Quickly give me recorded Avg TG, normalized to pre-treatment and control for AD05488: RNAi agent duplex: antisense AM07235-AS, sense AM07234-SS (antisense mU*fA*mC*fUmGfAmUfCmAfAmAfUmAfUmGfUmUfGmAfG*mC; sense {NAG37}*[invAb]*mGmCmUmCmAmAmCmAfUfAfUmUmUmGmAmUmCmAmGmUmA*[invAb])
stdout: 0.947

stdin: # return recorded Avg TG, normalized to pre-treatment and control for entry AD05777: RNAi agent duplex: antisense AM07235-AS, sense AM07610-SS (antisense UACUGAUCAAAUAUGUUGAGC; sense GCUCAACNUNUUUGAUCAGUA; (NAG37)s GalNAc ligand; RNAi agent antisense strand modified sequence; RNAi agent sense strand modified sequence; modified_base 8, 10 n = 2′-O-methyl-2-aminoadenosine-3′-phosphate)
stdout: 0.702

* * *

Hi there, I'd appreciate the recorded Avg TG, normalized to pre-treatment and control for every entry that follows.
system: ANGPTL3 gene; test: Example 7: serum triglycerides in mice; assay type: in vivo, C57bl/6 mice; parameters: key: ratio: (level/pre-treatment day -1 level) ÷ mean of D5W control group; conditions: Day 8, 0.5 mg/kg single SC injection on day 1, n=3
In the oligonucleotide strings, read from the 5' end, every base follows the letter of its sugar. An asterisk marks phosphorothioate; unmarked linkages are phosphodiester. Other units and linkages are bracketed, terminal groups are in braces. A string of capitals states the bases alone. {NAG37} = tridentate N-acetyl-galactosamine targeting ligand, structure (NAG37)s; [invAb] = inverted abasic unit; m = 2'-O-methyl; f = 2'-fluoro
Reply with just the number.

stdin: Consider the substance AD05488: RNAi agent duplex: antisense AM07235-AS, sense AM07234-SS (antisense mU*fA*mC*fUmGfAmUfCmAfAmAfUmAfUmGfUmUfGmAfG*mC; sense {NAG37}*[invAb]*mGmCmUmCmAmAmCmAfUfAfUmUmUmGmAmUmCmAmGmUmA*[invAb]) tested on ANGPTL3 gene; state its Avg TG, normalized to pre-treatment and control.
stdout: 0.856

stdin: Write down the reported Avg TG, normalized to pre-treatment and control (system: ANGPTL3 gene) of AD05777: RNAi agent duplex: antisense AM07235-AS, sense AM07610-SS (antisense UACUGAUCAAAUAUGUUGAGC; sense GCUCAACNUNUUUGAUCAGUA; (NAG37)s GalNAc ligand; RNAi agent antisense strand modified sequence; RNAi agent sense strand modified sequence; modified_base 8, 10 n = 2′-O-methyl-2-aminoadenosine-3′-phosphate)
stdout: 0.755

stdin: State Avg TG, normalized to pre-treatment and control (ANGPTL3 gene) of AD05775: RNAi agent duplex: antisense AM07235-AS, sense AM07608-SS (antisense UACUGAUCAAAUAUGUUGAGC; sense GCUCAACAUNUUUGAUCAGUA; (NAG37)s GalNAc ligand; RNAi agent antisense strand modified sequence; RNAi agent sense strand modified sequence; modified_base 10 n = 2′-O-methyl-2-aminoadenosine-3′-phosphate) .
stdout: 0.837

stdin: Please indicate recorded Avg TG, normalized to pre-treatment and control of AD05308: RNAi agent duplex: antisense AM07003-AS, sense AM07002-SS (chain 1 mU*fG*mU*fUmGfAmAfUmUfAmAfUmGfUmCfCmAfUmGfG*mA; chain 2 {NAG37}*[invAb]*mUmCmCmAmUmGmGmAfCfAfUmUmAmAmUmUmCmAmAmCmA*[invAb]) measured with ANGPTL3 gene.
stdout: 0.836

stdin: Answer with Avg TG, normalized to pre-treatment and control of AD05418: RNAi agent duplex: antisense AM07159-AS, sense AM07158-SS (antisense mU*fU*mU*fGmAfAmUfUmAfAmUfGmUfCmCfAmUfGmGfG*mU; sense {NAG37}*[invAb]*mAmCmCmCmAmUmGmGfAfCfAmUmUmAmAmUmUmCmAmAmA*[invAb]) measured for ANGPTL3 gene.
stdout: 0.830
